- System: PKB Ser473 phosphorylation in Rat1-myr-HA-p110 alpha cells
- assay.text: Reverse protein array assay, PKB Ser473 phosphorylation in Rat1-myr-p110 alpha cells
- Assay type: cell-based
- condition.description: 0.5 h, pAkt Ser473, 30 minutes compound incubation, read-out: p-PKB IC50
result.type: pIC50
// scale note: pIC50 = -log10(conc_M); give the bare number

Here's what some known entries look like.
CNc1ncc(-c2ccc3ncc4c(c3c2)n(-c2c(C)nn(C)c2C)c(=O)n4C)cn1 6.97
COCCn1nc(C)c(-n2c(=O)n(C)c3cnc4ccc(-c5cncc(NC(C)C)c5)cc4c32)c1C 6.91
COc1ccc(-c2ccc3ncc4c(c3c2)n(-c2c(C)cnn2C)c(=O)n4C)cc1OC 7.09
Cc1nn(C)cc1-n1c(=O)n(C)c2cnc3ccc(-c4cncnc4)cc3c21 6.80
COc1ccc(-c2ccc3ncc4c(c3n2)n(-c2cn(C)nc2C)c(=O)n4C)cc1OC 7.39

INPUT: # query: pIC50 of entry `Cc1nn(C)cc1-n1c(=O)n(C)c2cnc3ccc(-c4cncc(N(C)S(C)(=O)=O)c4)cc3c21`
OUTPUT: 6.60

INPUT: Note, next up: `C=CCn1c(=O)n(-c2cn(C)nc2C)c2c3cc(-c4cncc(N)c4)ccc3ncc21`
OUTPUT: 6.64

INPUT: How about `COCCn1c(=O)n(C)c2ncc(-c3ccc4ncc5c(c4c3)n(-c3cn(C)nc3C)c(=O)n5C)cc21` ?
OUTPUT: 6.12

====

- assay.text: Solubility at pH 6.8
- Format: physicochemical
- condition.description: pH 6.8, aqueous buffer, thermodynamic from solid; read-out: solubility
Threshold rule: solubility greater than or equal to 20 µg/mL is MET; below that, NOT MET.

CCNc1cc(-c2ccc3ncc4c(c3c2)n(-c2cn(CC)nc2C)c(=O)n4C)cnc1C MET

INPUT: Test whether the compound `CCNc1cc(-c2ccc3ncc4c(c3c2)n(-c2c(C)nn(CC(=O)N(C)C)c2C)c(=O)n4C)cnc1C` records solubility of 20 µg/mL or higher.
OUTPUT: MET

INPUT: Moving on to `Cc1nn(C)c(C)c1-n1c(=O)n(C)c2cnc3ccc(-c4ccc(N(C)C)nc4)cc3c21`
OUTPUT: MET

INPUT: Next up: `Cc1nn(C)cc1-n1c(=O)n(C)c2cnc3ccc(-c4cnc5c(c4)nc(C)n5C)cc3c21`
OUTPUT: MET

INPUT: Next compound up: `COc1ccc(-c2ccc3ncc4c(c3c2)n(-c2cn(C)nc2C)c(=O)n4C)cn1`
OUTPUT: NOT MET

INPUT: Another compound to check: `Cc1nn(C)c(C)c1-n1c(=O)n(C)c2cnc3ccc(-c4ccc(CO)nc4)cc3c21`
OUTPUT: MET

INPUT: Can you check `Cc1nn(C)cc1-n1c(=O)n(C)c2cnc3ccc(-c4cncc(OC(C)C)c4)cc3c21` next?
OUTPUT: MET

INPUT: Please answer likewise for `CNc1ncc(-c2ccc3ncc4c(c3c2)n(-c2cn(C)nc2C)c(=O)n4C)cc1Cl`
OUTPUT: MET

====

- assay.text: Solubility at pH 6.8
- Assay type: physicochemical
- condition.description: pH 6.8, aqueous buffer, thermodynamic from solid; read-out: solubility
Label rule, in plain words: solubility of 40 µg/mL and up is yes (1), under 40 µg/mL is no (0).

CNc1cc(-c2ccc3ncc4c(c3c2)n(-c2cn(C)nc2C)c(=O)n4C)cnc1CO yes (1)
Cc1nn(C)cc1-n1c(=O)n(C)c2cnc3ccc(-c4cnc(N)c(Cl)c4)cc3c21 no (0)
CCNc1cc(-c2ccc3ncc4c(c3c2)n(-c2cn(C)nc2C)c(=O)n4C)cnc1COC yes (1)
CCn1cc(-n2c(=O)n(C)c3cnc4ccc(-c5cncc(OC(C)C)c5)cc4c32)c(C)n1 no (0)
CCn1cc(-n2c(=O)n(C)c3cnc4ccc(-c5cnc(OC)nc5OC)cc4c32)c(C)n1 yes (1)
CCOc1ccc(-c2ccc3ncc4c(c3c2)n(-c2cn(C)nc2C)c(=O)n4C)cn1 no (0)
COc1ccc(-c2ccc3ncc4c(c3c2)n(-c2c(C)nn(C)c2C)c(=O)n4C)cc1OC yes (1)

Please turn your attention to the following entry.
INPUT: Is solubility for `Cc1nn(C)cc1-n1c(=O)n(C)c2cnc3ccc(-c4cncc(OCC5CC5)c4)cc3c21` at or above 40 µg/mL?
OUTPUT: no (0)

====

- target.of.assay: PI3K delta (Homo sapiens)
- Construct: for the full-length p110-d subunit are generated and fused by overlapping PCR; p85(iSH2) fusion partner (see partner chain) (N); His tag (C); Tn5 (Trichoplusia ni) or TiniPro insect cells
- Sequence (O00329 with tags, fused parts or gaps limits assumed): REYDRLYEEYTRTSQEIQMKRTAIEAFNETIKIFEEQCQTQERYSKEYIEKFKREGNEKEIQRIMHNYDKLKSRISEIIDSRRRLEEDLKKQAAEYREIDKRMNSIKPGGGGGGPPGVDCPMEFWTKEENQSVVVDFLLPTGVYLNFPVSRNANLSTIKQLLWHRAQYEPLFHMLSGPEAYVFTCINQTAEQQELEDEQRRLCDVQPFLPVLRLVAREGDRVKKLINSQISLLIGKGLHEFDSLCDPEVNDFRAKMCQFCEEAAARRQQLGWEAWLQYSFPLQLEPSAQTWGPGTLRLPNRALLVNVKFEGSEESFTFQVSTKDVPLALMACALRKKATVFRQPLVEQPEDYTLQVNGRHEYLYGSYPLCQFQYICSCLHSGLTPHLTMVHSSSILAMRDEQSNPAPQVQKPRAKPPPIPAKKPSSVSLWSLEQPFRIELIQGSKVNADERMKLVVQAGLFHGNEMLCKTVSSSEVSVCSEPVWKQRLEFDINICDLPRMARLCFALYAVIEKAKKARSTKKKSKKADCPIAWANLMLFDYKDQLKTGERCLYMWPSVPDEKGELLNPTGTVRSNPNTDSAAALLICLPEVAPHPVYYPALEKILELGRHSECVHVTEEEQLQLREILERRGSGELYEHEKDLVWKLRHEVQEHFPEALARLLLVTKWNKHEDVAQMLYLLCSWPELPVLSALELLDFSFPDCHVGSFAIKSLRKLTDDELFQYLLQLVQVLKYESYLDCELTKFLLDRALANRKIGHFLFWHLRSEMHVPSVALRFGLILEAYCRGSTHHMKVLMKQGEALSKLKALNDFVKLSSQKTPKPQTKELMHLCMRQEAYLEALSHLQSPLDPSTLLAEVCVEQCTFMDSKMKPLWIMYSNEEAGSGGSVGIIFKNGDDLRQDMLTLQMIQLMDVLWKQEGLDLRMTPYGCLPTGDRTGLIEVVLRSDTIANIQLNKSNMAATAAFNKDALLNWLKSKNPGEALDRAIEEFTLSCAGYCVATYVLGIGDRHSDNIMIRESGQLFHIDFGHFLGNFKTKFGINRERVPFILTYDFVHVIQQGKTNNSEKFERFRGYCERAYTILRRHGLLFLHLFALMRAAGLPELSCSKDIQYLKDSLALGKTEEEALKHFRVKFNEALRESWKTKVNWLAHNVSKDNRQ
- assay.text: PI3K delta kinase assay (Kinase-Glo luminescence)
- Procedure: In a more preferred assay, the kinase reaction is performed in a final volume of 10 μL per well of a low volume non binding CORNING, 384 well black plate (Cat. No. #3676). The final concentrations of ATP and phosphatidyl inositol (PI) in the assay are 1 μM and 10 μg/mL respectively. […] IC50 is determined by a four parameter curve fitting routine that comes along with “excel fit”. […] Alternatively, IC50 values are calculated using idbsXLfit model 204, which is a 4 parameter logistic model.
result.type: IC50 (nM)
Please reply with the bare figure in nM and do not write the unit itself.

CNC(=O)c1cc(-c2ccc3ncc4c(c3c2)n(-c2cn(C)nc2C)c(=O)n4C)cnc1OC 26

Now for another entry.
INPUT: Item `Cc1nn(C)cc1-n1c(=O)n(C)c2cnc3ccc(-c4ccc(OCCO)nc4)cc3c21` with PI3K delta (Homo sapiens) - IC50?
OUTPUT: 28

====

- target.of.assay: PI3K alpha (Homo sapiens, UniProt P42336)
- Construct: p85(iSH2) fusion partner (see partner chain) (N); His tag (C); Tn5 (Trichoplusia ni) or TiniPro insect cells
- Sequence (P42336 with tags, fused parts or gaps limits assumed): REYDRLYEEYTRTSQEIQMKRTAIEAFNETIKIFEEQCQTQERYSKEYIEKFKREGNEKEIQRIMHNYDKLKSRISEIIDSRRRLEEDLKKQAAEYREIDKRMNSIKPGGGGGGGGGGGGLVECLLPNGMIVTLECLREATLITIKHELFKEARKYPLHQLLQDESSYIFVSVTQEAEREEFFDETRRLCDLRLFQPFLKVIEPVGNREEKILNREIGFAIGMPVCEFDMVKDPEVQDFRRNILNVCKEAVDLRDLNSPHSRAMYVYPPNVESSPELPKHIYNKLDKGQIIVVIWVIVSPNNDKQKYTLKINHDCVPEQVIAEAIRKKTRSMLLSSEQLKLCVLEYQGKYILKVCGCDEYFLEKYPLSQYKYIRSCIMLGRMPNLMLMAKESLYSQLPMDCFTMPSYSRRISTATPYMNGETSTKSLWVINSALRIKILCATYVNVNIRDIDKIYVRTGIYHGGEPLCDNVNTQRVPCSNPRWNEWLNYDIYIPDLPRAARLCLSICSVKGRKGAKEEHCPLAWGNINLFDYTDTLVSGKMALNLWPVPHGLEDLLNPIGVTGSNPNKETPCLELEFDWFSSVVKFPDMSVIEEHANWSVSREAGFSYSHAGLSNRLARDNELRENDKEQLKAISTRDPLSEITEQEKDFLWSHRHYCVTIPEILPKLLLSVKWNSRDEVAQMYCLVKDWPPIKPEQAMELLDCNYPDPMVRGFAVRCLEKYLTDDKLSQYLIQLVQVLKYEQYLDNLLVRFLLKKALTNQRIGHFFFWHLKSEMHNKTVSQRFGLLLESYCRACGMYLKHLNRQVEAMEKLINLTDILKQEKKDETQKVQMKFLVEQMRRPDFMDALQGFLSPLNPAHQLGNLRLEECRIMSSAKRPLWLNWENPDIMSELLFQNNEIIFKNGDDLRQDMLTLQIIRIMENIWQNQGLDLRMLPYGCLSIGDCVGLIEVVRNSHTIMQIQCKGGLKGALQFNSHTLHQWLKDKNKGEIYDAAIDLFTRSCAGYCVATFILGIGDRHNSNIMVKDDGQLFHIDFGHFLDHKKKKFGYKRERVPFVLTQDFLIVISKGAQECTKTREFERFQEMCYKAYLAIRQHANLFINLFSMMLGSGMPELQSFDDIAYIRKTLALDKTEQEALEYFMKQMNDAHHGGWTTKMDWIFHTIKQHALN
- assay.text: PI3K alpha kinase assay (Kinase-Glo luminescence)
Label key: MET means IC50 under 90 nM; NOT MET means IC50 of 90 nM or more.

Some entries whose results are on file:
Cc1nn(C)c(C)c1-n1c(=O)n(C)c2cnc3ccc(-c4cccc(S(=O)(=O)N(C)C)c4)cc3c21 NOT MET
CCNc1ncc(-c2ccc3ncc4c(c3c2)n(-c2cn(C)nc2C)c(=O)n4C)cc1COCC MET
Cc1nn(C)cc1-n1c(=O)n(C)c2cnc3ccc(-c4ccc(-c5nn[nH]n5)nc4)cc3c21 NOT MET
Cc1nn(CC(=O)N2CCN(C)CC2)cc1-n1c(=O)n(C)c2cnc3ccc(-c4cnc(N5CCCC5)nc4)cc3c21 NOT MET

INPUT: Dear reviewer, please state whether `CCOc1cc(-c2ccc3ncc4c(c3c2)n(-c2cn(C)nc2C)c(=O)n4C)cnc1COC` has IC50 strictly beneath 90 nM.
OUTPUT: MET

====

- target.of.assay: PI3K beta (Homo sapiens)
- Construct: for the full-length p110-b subunit are generated and fused by overlapping PCR; p85(iSH2) fusion partner (see partner chain) (N); His tag (C); Tn5 (Trichoplusia ni) or TiniPro insect cells
- Sequence (P42338 with tags, fused parts or gaps limits assumed): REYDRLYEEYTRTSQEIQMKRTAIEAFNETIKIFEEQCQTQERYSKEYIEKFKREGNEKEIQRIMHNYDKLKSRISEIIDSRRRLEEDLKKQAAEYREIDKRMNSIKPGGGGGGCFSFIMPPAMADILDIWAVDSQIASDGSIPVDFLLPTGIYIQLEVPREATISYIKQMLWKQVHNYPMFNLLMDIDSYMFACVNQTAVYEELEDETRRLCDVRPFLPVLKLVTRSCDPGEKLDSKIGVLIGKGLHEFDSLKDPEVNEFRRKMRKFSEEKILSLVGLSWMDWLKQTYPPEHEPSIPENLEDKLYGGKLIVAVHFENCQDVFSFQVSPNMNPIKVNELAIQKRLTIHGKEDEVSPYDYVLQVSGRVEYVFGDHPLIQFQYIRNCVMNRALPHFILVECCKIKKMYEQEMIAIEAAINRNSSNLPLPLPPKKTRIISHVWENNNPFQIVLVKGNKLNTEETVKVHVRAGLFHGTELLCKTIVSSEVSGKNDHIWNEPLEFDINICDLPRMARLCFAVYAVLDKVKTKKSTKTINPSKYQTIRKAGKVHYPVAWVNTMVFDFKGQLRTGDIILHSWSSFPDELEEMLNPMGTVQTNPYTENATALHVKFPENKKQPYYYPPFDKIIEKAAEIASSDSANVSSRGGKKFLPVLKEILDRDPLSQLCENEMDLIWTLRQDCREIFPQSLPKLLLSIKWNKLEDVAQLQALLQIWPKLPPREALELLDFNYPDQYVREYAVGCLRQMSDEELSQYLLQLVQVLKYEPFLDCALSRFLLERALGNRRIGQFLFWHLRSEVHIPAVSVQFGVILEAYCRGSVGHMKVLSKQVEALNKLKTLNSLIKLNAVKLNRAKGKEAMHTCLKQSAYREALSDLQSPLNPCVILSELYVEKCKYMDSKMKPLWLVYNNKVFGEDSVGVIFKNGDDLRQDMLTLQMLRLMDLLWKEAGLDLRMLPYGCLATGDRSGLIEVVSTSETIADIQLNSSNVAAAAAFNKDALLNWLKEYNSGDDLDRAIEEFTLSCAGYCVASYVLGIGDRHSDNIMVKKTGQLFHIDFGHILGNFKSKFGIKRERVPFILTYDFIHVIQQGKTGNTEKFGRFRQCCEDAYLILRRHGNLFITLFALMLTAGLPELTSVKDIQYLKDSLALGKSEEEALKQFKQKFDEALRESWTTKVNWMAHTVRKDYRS
- assay.text: PI3K beta kinase assay (Kinase-Glo luminescence)
IC50 overview
All answers are understood in nM, so give the number only.

Reference set (2 entries):
CNc1ncc(-c2ccc3ncc4c(c3c2)n(-c2c(C)noc2C)c(=O)n4C)cc1Cl 281
CCc1ncc(-c2ccc3ncc4c(c3c2)n(-c2cn(C)nc2C)c(=O)n4C)cc1O 30

Now turn to the next molecule.
INPUT: Please state recorded IC50 (tested on PI3K beta (Homo sapiens)) of `Cc1nn(C)cc1-n1c(=O)n(C)c2cnc3ccc(-c4ccc(C(N)=O)nc4)cc3c21`
OUTPUT: 130

====

# solubility annotations
- assay.text: Solubility at pH 6.8
- Type: physicochemical
- condition.description: pH 6.8, aqueous buffer, thermodynamic from solid; read-out: solubility

INPUT: Can you look up the measured solubility of `CCOc1ccc(-c2ccc3ncc4c(c3c2)n(-c2c(C)nn(CCOC)c2C)c(=O)n4C)cn1` for me?
OUTPUT: > 473 µg/mL

INPUT: Also `COCc1ncc(-c2ccc3ncc4c(c3c2)n(-c2cn(C(C)C)nc2C)c(=O)n4C)cc1OC` , if possible.
OUTPUT: > 473 µg/mL

INPUT: Same lookup for `Cn1nccc1-n1c(=O)n(C)c2cnc3ccc(-c4ccc(NCCO)nc4)cc3c21` , please.
OUTPUT: > 415 µg/mL

INPUT: Next: `COCc1cncc(-c2ccc3ncc4c(c3c2)n(-c2cn(C)nc2Cl)c(=O)n4C)c1`
OUTPUT: > 435 µg/mL

INPUT: Okay, and `Cc1nn(C)cc1-n1c(=O)n(C)c2cnc3ccc(-c4cnn(CCO)c4)cc3c21` ?
OUTPUT: > 403 µg/mL

INPUT: Again, but for `CNc1cc(-c2ccc3ncc4c(c3c2)n(-c2cn(C)nc2C)c(=O)n4C)cnc1COC`
OUTPUT: > 444 µg/mL

INPUT: Try `Cc1nn(CCO)cc1-n1c(=O)n(C)c2cnc3ccc(-c4cncc(N5CCOCC5)c4)cc3c21` next.
OUTPUT: > 486 µg/mL
